These entries and their values trace back to patent US20030134342A1.

- protocol-notes: Viability of HL60 cells, trypan blue
- Assay type: cell-based
- measurement-conditions: human
quantity-kind: viability at 7 days (%)
# output: bare number, implied unit %

# compound C[S+](C)[O-] [DMSO, dimethylsulfoxide, reference compound] ; its viability at 7 days = 97

---

- Test system: AML bone marrow cells
- protocol-notes: Methylcellulose culture of AML bone marrow cells with peptides: proliferation (colonies) and differentiation (morphology)
- Format: cell-based, human
- measurement-conditions: fraction, not explained; peptide alone
quantity-kind: Cell Differentiation

Reference set, count: 5
sequence-text: CNHVCSRLGC [B6 12-8B]
Cell Differentiation: 3/13

sequence-text: CIEETAAKGC [Peptide A2A, A2 with R replaced by A]
Cell Differentiation: 3/8

sequence-text: CDEKRGPNEC [B4 C10]
Cell Differentiation: 2/4

sequence-text: CNNATVEDEC [C8 12-8B]
Cell Differentiation: 1/8

sequence-text: CNNATFEDGC [G2 12-8A]
Cell Differentiation: 2/12

# sequence CNELHMKQHC [G7 12-8B] ; its Cell Differentiation = 4/5

# sequence IEETARKG [A2 11-24 no Cys] ; its Cell Differentiation = 4/13

---

- Tested on: AML bone marrow cells
- protocol-notes: Methylcellulose culture of AML bone marrow cells with peptides: proliferation (colonies) and differentiation (morphology)
- Type: cell-based, human
- measurement-conditions: fraction, not explained; with GM-CSF
Below, each entry is listed with its recorded Cell Differentiation GM-CSF.

Reference set, count: 5
sequence-text: CNNATFEDGC [G2 12-8A]
Cell Differentiation GM-CSF: 2/5
--
sequence-text: CNHVCSRLGC [B6 12-8B]
Cell Differentiation GM-CSF: 2/5
--
sequence-text: CNELHMKQHC [G7 12-8B]
Cell Differentiation GM-CSF: 0/2
--
sequence-text: CIEETAAKGC [Peptide A2A, A2 with R replaced by A]
Cell Differentiation GM-CSF: 1/4
--
sequence-text: CNNATVEDEC [C8 12-8B]
Cell Differentiation GM-CSF: 1/2

Param item: IEETARKG [A2 11-24 no Cys] ; param system: AML bone marrow cells; output Cell Differentiation GM-CSF: 2/2

Param item: CDEKRGPNEC [B4 C10] ; param system: AML bone marrow cells; output Cell Differentiation GM-CSF: 0/2

---

- protocol-notes: Viability of HL60 cells, trypan blue
- Format: cell-based
- measurement-conditions: human
quantity-kind: viability at 9 days (%)
# output: bare number, implied unit %

# molecule C[S+](C)[O-] [DMSO, dimethylsulfoxide, reference compound] ; its viability at 9 days = 82

---

- Tested on: human bone marrow AML cells
- protocol-notes: Effect of phage-peptides on differentiation, cell number and viability of freshly obtained AML patient bone marrow cells cultured seven days
- Format: cell-based
- measurement-conditions: Patient 2; phage-peptides
- Text: The effect of various phage-peptides were studied on the differentiation of cells from two AML patients.
Below, each entry is listed with its recorded Number of Cells.

sequence-text: EFQQWSGK [G2 11-24]
Number of Cells: 0.25 106
--
sequence-text: VSEDIYDA [F1 12-8B]
Number of Cells: 0.22 106
--
sequence-text: DEKRGPNE [B4(1)]
Number of Cells: 0.25 106
--
sequence-text: NNATFEDG [G2 12-8A]
Number of Cells: 0.31 106

Let us examine a further case.
# sequence IEETARKG [A2 11-24 phage] ; its Number of Cells = 0.33 106
